I'd appreciate it if you could supply pEC50 values for the items below.
Tested on: M17-TAU P301L cells
Assay info: Tau-induced toxicity experiment: LDH leakage of retinoic acid incubated M17-TAU P301L cells
Format: cell-based
Recorded conditions: Homo sapiens, Neuroblastoma cell, 168 h; reduction of LDH activity of retinoic acid incubated M17-TAU P301L neuroblastoma cells, 7 days
Just the number, please; pEC50 means minus log10 of the concentration in mol/L.

Looking for the measured pEC50 of COc1cccc(Cc2ccc(C(=O)NCCc3c[nH]c4ccc(Cl)cc34)cc2)c1F , can you help?
6.83

Request: O=C(NCCc1c[nH]c2ccc(Cl)cc12)c1ccc(Cc2cccc(F)c2)cc1F
7.57

Request: O=C(NCCc1c[nH]c2ccc(Cl)cc12)c1cccc(Nc2ccccc2)c1
6.79

Request: N#Cc1ccc(Cc2cccc(C(=O)NCCc3c[nH]c4ccc(Cl)cc34)c2)cc1
7.49

Request: O=C(NCCc1c[nH]c2ccc(Cl)cc12)c1ccc(Cc2ccco2)cc1
6.88

Request: CN(c1ccc(C(=O)NCCc2c[nH]c3ccc(Cl)cc23)cc1)c1cccc(F)c1
6.58

Request: Cc1ccc(Cc2cccc(C(=O)NCCc3c[nH]c4ccc(Cl)cc34)c2)cc1
7.21

Request: O=C(NCCc1c[nH]c2ccc(Cl)cc12)c1cccc(Cc2cccc(F)c2)n1
6.96

Request: O=C(NCCc1c[nH]c2ccc(Cl)cc12)c1ccc(Nc2cccc(F)c2)cc1
7.09

Source of measurements: patent US9266832B2
